# credit: ChEMBL document CHEMBL4382232

# assay-target: Tyrosine-protein phosphatase non-receptor type 1 (Homo sapiens)
# assay-comment: Inhibition of recombinant human PTP1B at 40 uM using pNPP as substrate preincubated for 10 mins followed by substrate addition and measured after 30 mins at 5 mins time interval for 30 mins
The source made the active and inactive calls. The calls are words filed in the database; no cut-off is given here.

smiles-notation: C=C1[C@@H]2CC[C@@H]3[C@@H](OC(C)=O)[C@@]2(C[C@@H](O)[C@@]2(O)[C@H]1C[C@H](O[C@@H]1O[C@H](CO)[C@@H](O)[C@H](O)[C@H]1O)C2(C)C)C[C@@]3(C)O
inhibition: inactive

smiles-notation: C=C1[C@H]2C[C@H](O)C(C)(C)[C@]2(O)CC[C@@]23C[C@@H](CC[C@@H]12)[C@](C)(O[C@@H]1O[C@H](CO)[C@@H](O)[C@H](O)[C@H]1O)C3
inhibition: inactive

smiles-notation: C=C1[C@@H]2CC[C@@H]3[C@@H](O)[C@@]2(C[C@@H](O)[C@@]2(O)[C@H]1C[C@H](O[C@@H]1O[C@H](CO)[C@@H](O)[C@H](O)[C@H]1O)C2(C)C)C[C@@]3(C)O
inhibition: inactive

====

# Tested on: Mus musculus
# assay-comment: Antinociceptive activity in Kunming mouse model of acetic-acid-induced writhing assessed as inhibition of writhing numbers at 5 mg/kg measured for 30 mins relative to control
# Assay type: functional
The source made the active and inactive calls. The calls are words filed in the database; no cut-off is given here.
The reply should name one outcome from active, inactive

Known results for molecules:
smiles-notation: C=C1[C@H]2C[C@H](O)C(C)(C)[C@@]2(O)[C@H](O)C[C@@]23C[C@@H](CC[C@@H]12)[C@](C)(O[C@@H]1O[C@H](CO)[C@@H](O)[C@H](O)[C@H]1O)C3
assigned-class: active
//
smiles-notation: C=C1[C@@H]2CC[C@@H]3[C@@H](OC(C)=O)[C@@]2(C[C@@H](O)[C@@]2(O)[C@H]1C[C@H](O[C@@H]1O[C@H](CO)[C@@H](O)[C@H](O)[C@H]1O)C2(C)C)C[C@@]3(C)O
assigned-class: active
//
smiles-notation: C=C1[C@@H]2CC[C@@H]3C[C@@]2(C[C@@H](O)[C@@]2(O)[C@H]1C[C@@H](O[C@@H]1O[C@H](CO)[C@@H](O)[C@H](O)[C@H]1O)C2(C)C)C[C@@]3(C)O
assigned-class: active
//
smiles-notation: C[C@H]1[C@@H]2C[C@H](O[C@@H]3O[C@H](CO)[C@@H](O)[C@H](O)[C@H]3O)C(C)(C)[C@]23O[C@]12CC[C@@H]1C[C@@]2(C[C@H]3O)C[C@@]1(C)O
assigned-class: active

## Task Assay outcome for C=C1[C@H]2C[C@H](O)C(C)(C)[C@]2(O)CC[C@@]23C[C@@H](CC[C@@H]12)[C@](C)(O[C@@H]1O[C@H](CO)[C@@H](O)[C@H](O)[C@H]1O)C3 : what was it?
## Result inactive

====

# Tested on: Mus musculus
# assay-comment: Antinociceptive activity in Kunming mouse model of acetic-acid-induced writhing assessed as inhibition of writhing numbers at 5 mg/kg measured for 30 mins relative to control
# Format: functional
Active and inactive are the calls of the source. No cut-off for these calls is given here.
The reply should name one outcome from active, inactive

Known results for compounds:
smiles-notation: CC(=O)O[C@@H]1[C@H]2CC[C@H]3[C@@](C)(O)[C@@H]4C[C@H](O[C@@H]5O[C@H](CO)[C@@H](O)[C@H](O)[C@H]5O)C(C)(C)[C@@]4(O)[C@H](O)C[C@@]13C[C@@]2(C)O
assigned-class: inactive
--
smiles-notation: C=C1[C@H]2C[C@H](O)C(C)(C)[C@]2(O)CC[C@@]23C[C@@](O)(CC[C@@H]12)[C@](C)(O[C@@H]1O[C@H](CO)[C@@H](O)[C@H](O)[C@H]1O)C3
assigned-class: active
--
smiles-notation: C=C1[C@H]2C[C@H](O[C@@H]3O[C@H](CO)[C@@H](O)[C@H](O)[C@H]3O)C(C)(C)[C@@]2(O)[C@H](O)C[C@@]23C[C@@H](CC[C@@H]12)[C@](C)(O)C3
assigned-class: inactive

Below: the item to evaluate.
## Task Assay outcome for C=C1[C@@H]2CC[C@@H]3C[C@@]2(C[C@@H](O)[C@@]2(O)[C@H]1C[C@H](O[C@@H]1O[C@H](CO)[C@@H](O)[C@H](O)[C@H]1O)C2(C)C)C[C@@]3(C)O : what was it?
## Result active
